Attribution: patent US20210347727A1

- System: calpain activity in SH-SY5Y cells
- test-name: SH-SY5Y cellular calpain activity, Suc-LLVY-AMC fluorescence assay
- Type: cell-based
- condition-context: Suc-LLVY-AMC substrate
pIC50: −log10 of the molar value.
readout-label: pIC50

O=CC(Cc1ccccc1)NC(=O)c1c(C(F)(F)F)ccc(Cl)c1F (stereo not drawn) : 4.60 to 5.00
Cn1c2ccccc2c2cccc(C(=O)NC(Cc3ccccc3)C(=O)C(N)=O)c21 (stereo not drawn) : > 5.00
Cn1c2ccccc2c2c(C(=O)NC(C=O)Cc3ccccc3)cccc21 (stereo not drawn) : > 5.00
O=CC(Cc1ccccc1)NC(=O)c1cccc2c1oc1ccccc12 (stereo not drawn) : < 4.60
Cc1cccc(C(=O)NC(Cc2ccccc2)C(=O)C(N)=O)c1C (stereo not drawn) : > 5.00

State recorded pIC50 with calpain activity in SH-SY5Y cells, entry COc1ccc(F)c(C(=O)N[C@@H](Cc2ccccc2)C(=O)C(N)=O)c1Cl , no comment.
> 5.00
